biological target: Sphingosine 1-phosphate receptor 4 (Homo sapiens) (UniProt O95977); experiment: S1P4 receptor antagonists, human, confirmation, cell-based (AID 1524); conditions: S1P4-expressing cell line, antagonist mode, reporter read-out; at 4.98 µM; stronger effect = higher value
Sequence (O95977 whole entry, looked up): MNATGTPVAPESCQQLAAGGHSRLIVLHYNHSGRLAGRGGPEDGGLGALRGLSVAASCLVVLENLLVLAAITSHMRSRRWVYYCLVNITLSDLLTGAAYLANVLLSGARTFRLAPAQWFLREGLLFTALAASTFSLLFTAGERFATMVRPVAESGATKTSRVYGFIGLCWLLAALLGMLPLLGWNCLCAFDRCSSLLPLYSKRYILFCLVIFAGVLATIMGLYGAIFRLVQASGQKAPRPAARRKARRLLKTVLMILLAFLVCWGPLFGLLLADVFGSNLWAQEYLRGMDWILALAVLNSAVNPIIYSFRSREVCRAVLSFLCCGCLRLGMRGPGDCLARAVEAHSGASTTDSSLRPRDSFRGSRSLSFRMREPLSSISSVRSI
This is one part of the list.
attribute-measured: inhibition (%)
The reply should be a number in %, with the unit left off.

O=C(CC(O)(C(F)(F)F)C(F)(F)F)Nc1ccc(Cl)c(Cl)c1 ... 37.4

Turning now to a further molecule:
Query :: For Sphingosine 1-phosphate receptor 4 (Homo sapiens) (UniProt O95977), give the measured inhibition of the entry CC(C)c1ccc(N2CCN(C(=O)c3ccccc3NC(=O)/C=C(\C(=O)O)c3ccccc3)CC2)cc1
Result :: 102
